biological target: MAPK14 (human) (UniProt Q16539); test: Inhibition of MAPK14 by Human Whole Blood Assay; conditions: blood cells
Sequence (Q16539 whole entry, looked up): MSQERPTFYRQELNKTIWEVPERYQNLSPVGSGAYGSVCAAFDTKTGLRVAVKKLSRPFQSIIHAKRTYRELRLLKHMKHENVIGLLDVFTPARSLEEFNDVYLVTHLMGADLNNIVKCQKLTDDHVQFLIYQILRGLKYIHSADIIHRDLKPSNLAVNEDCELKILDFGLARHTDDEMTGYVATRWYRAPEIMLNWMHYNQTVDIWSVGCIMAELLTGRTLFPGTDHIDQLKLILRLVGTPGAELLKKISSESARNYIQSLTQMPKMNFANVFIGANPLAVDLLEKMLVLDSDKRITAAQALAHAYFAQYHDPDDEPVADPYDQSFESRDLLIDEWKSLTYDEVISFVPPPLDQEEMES
quantity_measured: IC50

[in] Give recorded IC50. O=C(c1ccc2ccccc2c1)N(Cc1ccc(F)cc1)c1ccnc(N[C@H]2CCCc3ccccc32)c1
[out] ≤ 1000 nM

[in] Give recorded IC50. CCN(C(=O)c1ccc2ccccc2c1)c1ccnc(NC2CCC(N)CC2)n1 (stereo not given)
[out] < 1000 nM

[in] Give recorded IC50. O=C(c1ccc2c(c1)CCO2)N(CC1CCNCC1)c1ccnc(NC2CC2)n1
[out] < 1000 nM

[in] Give recorded IC50. COCCCN(C(=O)c1ccc2ccccc2c1)c1ccnc(N[C@@H](C)c2ccccc2)n1
[out] < 1000 nM

API: the following record is the query input.
[in] Give recorded IC50. C[C@@H](Nc1cc(N(Cc2ccc(F)cc2)C(=O)c2ccc3ccccc3c2)ccn1)c1ccccc1
[out] ≤ 1000 nM

Origin of measurements: the Kinase Knowledgebase extract (Sharma et al. 2016)
